target: ZFP SBS#1040 (synthetic, UniProt P08047); assay: EMSA; conditions: tags: MBP fusion
Sequence (P08047 other isoform, or with tags, fused parts or gaps): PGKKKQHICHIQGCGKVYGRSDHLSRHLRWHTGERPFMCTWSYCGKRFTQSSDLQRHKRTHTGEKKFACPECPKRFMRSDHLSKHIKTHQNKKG
Measure name: pKd
pKd (log units): -log10 of the concentration in mol/L.

Request: Give me measured pKd, please, for this binder: GGGGCTGGG (dsDNA) DNA 1: GGGGCTGGG DNA 2: CCCAGCCCC
Result: 10.30
